From: paper PMC5452050

A collection of compounds and their measured half-life at 4 µM
# experimental.details: Liver microsomal stability
# condition.summary: female, CD-1, mouse, liver microsomes, pH 7.4
value.type: half-life at 4 µM (min)

• c1cncc(-c2cccc(Nc3nccc(NC4CCCCC4)n3)c2)c1 = 15.6
• CC(C)Nc1ccnc(Nc2cccc(-c3cnccn3)c2)n1 = 7.08
• CC(C)Nc1ccnc(Nc2cccc(-c3cccnc3)c2)n1 = 18

====

# assayed.system: recombinant human FLT3 (571–993) (Homo sapiens)
# Sequence (P36888 571-993): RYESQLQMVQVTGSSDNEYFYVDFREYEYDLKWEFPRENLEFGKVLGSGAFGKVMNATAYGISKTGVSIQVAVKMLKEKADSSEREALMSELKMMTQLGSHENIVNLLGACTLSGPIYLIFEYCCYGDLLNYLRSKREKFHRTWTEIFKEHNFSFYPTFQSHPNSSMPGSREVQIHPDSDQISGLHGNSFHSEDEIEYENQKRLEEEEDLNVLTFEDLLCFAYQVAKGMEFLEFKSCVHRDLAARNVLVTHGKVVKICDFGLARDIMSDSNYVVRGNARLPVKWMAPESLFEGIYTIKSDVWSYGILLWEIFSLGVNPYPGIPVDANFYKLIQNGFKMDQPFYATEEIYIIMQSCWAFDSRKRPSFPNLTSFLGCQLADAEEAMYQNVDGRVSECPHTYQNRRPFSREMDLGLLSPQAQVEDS
# experimental.details: biochemical
# Assay type: biochemical
# condition.summary: FLT3 IC50, FLT3^WT enzyme, 500 μM ATP
value.type: IC50 (nM)

- c1cncc(-c2cccc(Nc3cccc(NC4CCCCC4)n3)c2)c1: 80
- CN(c1ccnc(Nc2cccc(-c3cccnc3)c2)n1)C1CCCCC1: 82
- c1cncc(-c2cccc(Nc3ccnc(NC4CCCCC4)c3)c2)c1: 141
- c1cncc(-c2cccc(Nc3nccc(OC4CCCCC4)n3)c2)c1: 187
- c1cncc(-c2cccc(Oc3nccc(OC4CCCCC4)n3)c2)c1: 49
- c1cncc(-c2cccc(Oc3nccc(NC4CCCCC4)n3)c2)c1: 1260
- c1cncc(-c2cccc(Nc3cc(NC4CCCCC4)ccn3)c2)c1: 1500
